molecular target: T1, human Complement Factor D (CFD), purified from human serum (human, UniProt P00746 26-253); test: SPR MX96, mAbs amine-coupled, CFD injected
T1 construct: serum purified (CompTech A136); also called serum purified CFD; hCFD-Comptech
T1 sequence (P00746 26-253): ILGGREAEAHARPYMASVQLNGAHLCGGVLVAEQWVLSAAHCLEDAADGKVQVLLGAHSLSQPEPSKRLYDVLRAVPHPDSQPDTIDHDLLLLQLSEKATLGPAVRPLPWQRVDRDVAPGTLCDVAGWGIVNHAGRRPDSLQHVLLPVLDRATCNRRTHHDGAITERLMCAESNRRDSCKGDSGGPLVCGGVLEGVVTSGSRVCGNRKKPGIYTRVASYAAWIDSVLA
// reported Kd for each item listed
API: value field is a number in nM; no unit string.

Some binders with known Kd results, for comparison:
[
  {
    "binder": "KCD125 (antibody, V domains shown) VH: EVQLQQSGAELVRPGSSVKMSCKTSGNTFTSYGINWVKQRPGQGLEWIGYIYIGTGYTEYNEKFKGKATLTSDTSSSTAYMQLSSLTSEDSAIYFCVRKAYGNYGFDYWGQGTTLTVSS VL: DIQMTQSPSSLSASLGERVSLTCRASQEISGYLSWLQQKPDGTIKRLIYAASTLDSGVPKRFSGSRSGSDYSLTISSLESEDFADYYCLQYASYPFTFGSGTKLEIK",
    "Kd / nM": 3.75
  },
  {
    "binder": "KCD038 (antibody, V domains shown) VH: EVQLQQSGPELVKPGTSMKISCKASGYSFADYTMNWVKQSHGKSLEWIGLINPYNGGTSYNQKFMGKATLTVDKSSSTAYMELLSLTSEDSAVYYCARWGTYSHNYDYAMDYWGQGTSVTVSS VL: DVVMTQTPLSLPVSLGDQASISCRSSQSLVHSNGNTYLYWYFQKPGQSPKFLIYKVSNRFSGISDRFSGSGSGTDFTLKISRVEAEDLGVYFCSQSTHVPPFTFGSGTKLEIK",
    "Kd / nM": 37.2
  },
  {
    "binder": "KCD224 (antibody, V domains shown) VH: QVQLKESGPGLVAPSQSLSITCTVSGFSLTSYGVDWIRQSPGKGLEWLGVIWGVGSTNYNSALKSRLSISKDNSKSQVFLKMNSLQTDDTAMYYCARSYDGSYWYFDVWGTGTTVTVSS VL: DIQMTQTTSSLSASLGDRVTISCRASQVISNYLNWYQQKPDGTVKLLIYYTSRLHSGVPSRFSGSGSGTDYSLTISNLEPEDIATYYCQQYSKLPYTFGSGTKLEIK",
    "Kd / nM": 1.17
  },
  {
    "binder": "KCD126 (antibody, V domains shown) VH: EVQLQQSGAELVRPGSSVKMSCKTSGKTFTSHGINWVKQRPGQGLEWIGYIYIGNGYNEYNEKFKGKATLTSDTSSSTAYMQLSSLTFEDSAIYFCVRKAYGNYGFDDWGQGTTLTVSS VL: DIQMTQSPTSLSASLGESVSLTCRASQEISGNLNWLQQKPDGSIKRLIYAASTLDSGVPKRFSGSRSGSDYSLTISSLESEDFADYYCLQYANYPFTFGSGTKLEVK",
    "Kd / nM": 0.34
  }
]

// sample KCD019 (antibody, V domains shown) VH: QVQLQQSGAELARPGASVKMSCKASGYTFATYTIHWVKQRPGQGLEWIGYLNLRNDYTHYNQKFRDKAALTADKSSSTAYMQLSSLTSEDSAVYNCAFRLGNDRQGWYFDVWGAGTTVTVSS VL: DIVMTQAHRFMSTSVGDRVIISCKASQDVGTAVAWYQQTPGQSPKILIYWTSTRHTGVPDRFTGSRSGTDFTLTISNVQSEDLADYFCQQYTTYPLTFGGGTKLEIK , its Kd was 7.24

Where do the numbers come from? From patent US20180334496A1.
